test system: ERK3; construct: gene MAPK6; conditions: concentration: 1 μM, replicates: in singlicate; n = 1;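 further: KINOMEscan kinase panel screen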
property measured: %Inh (%)

{"molecule": "Cl.c1ccc(Cn2ncc3cc(Nc4ncnc5ccccc45)ccc32)cc1 [GW273749]", "readout number": 57}
{"molecule": "O=C(CCO)NCCn1ccc2ncnc(Nc3ccc(Oc4cccc(C(F)(F)F)c4)c(Cl)c3)c21", "readout number": 0}
{"molecule": "FC(F)(F)c1ccc(-c2nn3ncccc3c2-c2ccnc(Nc3cccc(C(F)(F)F)c3)n2)cc1 [GW828205]", "readout number": 0}
{"molecule": "N#Cc1ccc(Oc2ccc(Nc3ncnc4cc[nH]c34)cc2Cl)cc1", "readout number": 0}
{"molecule": "Cl.c1ccc(Cn2ccc3cc(Nc4ncnc5ccccc45)ccc32)cc1 [GW275568]", "readout number": 4}
{"molecule": "COc1cc2c(Nc3cccc(NC(=O)c4ccccc4)c3)ncnc2cc1OCCCN1CCOCC1 [GSK223810]", "readout number": 0}
{"molecule": "FC(F)(F)c1ccc(-c2cc(-c3c[nH]nc3-c3ccccn3)ccn2)cc1 [GW599550]", "readout number": 0}
{"molecule": "Nc1nc(-c2ccc3c(N)n[nH]c3c2)cc(N2CCCCC2)n1 [GSK2228768]", "readout number": 6}
{"molecule": "O=C(NCCCN1CCCC1=O)c1cnc(NCc2cc(Cl)ccc2Cl)nc1NC1CCNCC1", "readout number": 0}
{"molecule": "Nc1nc(-c2ccc3c(N)n[nH]c3c2)cc(N2CCC[C@@H](C(=O)Nc3ccccc3)C2)n1.O=C(O)C(F)(F)F.O=C(O)C(F)(F)F [GSK2288359]", "readout number": 18}
{"molecule": "FC(F)(F)c1cc(Nc2nccc(-c3c(-c4ccc(Cl)cc4)nn4ncccc34)n2)ccc1Cl [GW829351]", "readout number": 0}
{"molecule": "Cl.O=S(=O)(c1cccc(F)c1)c1ccc(Nc2ncnc3cc(Br)sc23)cc1Cl [GSK306886]", "readout number": 10}
{"molecule": "Fc1cccc(COc2ccc(Nc3ncnc4sc(-c5ccc[nH]5)cc34)cc2Cl)c1 [GW707818]", "readout number": 3}
{"molecule": "OCCOCCn1ccc2ncnc(Nc3ccc(Oc4cccc(Cl)c4)c(Cl)c3)c21", "readout number": 0}
{"molecule": "CC(C)(C)OC(=O)NC1CCCN(c2cc(-c3ccc4c(N)n[nH]c4c3)nc(N)n2)C1 (stereo not drawn) [GSK2286096]", "readout number": 0}
{"molecule": "COc1ccc(NC(=O)c2ccc(-c3cc(-c4nnc(C)o4)ccc3C)cc2)cc1 [GW595885]", "readout number": 0}
{"molecule": "Cc1ccc(NC(=O)c2cccc(C#N)c2)cc1-c1ccc(C(=O)Nc2ccncc2)cc1 [GSK1398463]", "readout number": 5}
{"molecule": "CCc1nc(-c2cccc(C)c2)c(-c2ccnc(NC(=O)c3ccccc3)c2)s1", "readout number": 4}
{"molecule": "CSc1nn2c(=O)cc(N3CCOCC3)nc2n1Cc1cccc(Cl)c1Cl [GSK2347225]", "readout number": 15}
{"molecule": "C[C@H]1CC[C@@H](C(=O)Nc2ccccc2)CN1c1cc(-c2ccc3c(N)n[nH]c3c2)nc(N)n1 [GSK2283293]", "readout number": 4}
{"molecule": "COc1ccc(Nc2nccc(N3CCC(NC(=O)c4cccc(NC(C)=O)c4)C3)n2)cc1 (stereo not drawn) [GSK1379732]", "readout number": 5}
{"molecule": "NC(=O)c1sc(-n2cnc3ccccc32)cc1OCc1ccccc1F [GSK1024306]", "readout number": 0}
{"molecule": "CCC(CC)(CC)n1cnc2c(N)ncnc21 [SKF-97620]", "readout number": 0}
{"molecule": "Fc1ccc(Nc2nccc(-c3c(-c4ccc(Cl)cc4)nn4ncccc34)n2)cc1F [GW829058]", "readout number": 0}
{"molecule": "Fc1ccc(-c2ncn(CCCNCc3ccccc3)c2-c2ccncc2)cc1", "readout number": 0}
{"molecule": "CN1CCC(n2cnc(-c3ccc(F)cc3)c2-c2ccnc(NC3CCNCC3)n2)CC1 [SB-229482]", "readout number": 30}
{"molecule": "Nc1nc(-c2ccccn2)c(-c2ccnc3ccccc23)s1 [GW548057]", "readout number": 10}
{"molecule": "Clc1cccc(-c2nc(Nc3ccncc3)c3ccccc3n2)c1 [GW873004]", "readout number": 0}
{"molecule": "Cc1cccc(-c2nc(Nc3ccc4[nH]nnc4c3)c3ccccc3n2)n1 [GW867587]", "readout number": 0}
{"molecule": "Cn1ccc2ncnc(Nc3ccc(Oc4cccc(Cl)c4)c(Cl)c3)c21", "readout number": 6}
{"molecule": "CC(=O)Nc1n[nH]c2ncc(-c3ccccc3)cc12 [SB-548492]", "readout number": 1}
{"molecule": "Fc1cccc(COc2ccc(Nc3ncnc4cc[nH]c34)cc2Cl)c1", "readout number": 22}
{"molecule": "CC(C)(C)c1ccc(-n2cnc3c(N)ncnc32)cc1 [SKF-97263]", "readout number": 0}
{"molecule": "Cn1cc(-c2ccc3c(c2)CCN3C(=O)Cc2cccc(C(F)(F)F)c2)c2c(N)ncnc21 [GSK2606414]", "readout number": 2}
{"molecule": "Cl.Cl.c1ccc(-c2cc3ccncc3cc2OC2CCNCC2)cc1 [GSK1122999]", "readout number": 24}
{"molecule": "COC(=O)c1cccc(NC(=O)NCCNc2ccnc(Nc3ccc(F)cc3)n2)c1 [GSK1379883]", "readout number": 0}

The reported measurements were obtained from paper PMC5540273.
